Can you tell me melting point for the items I'm about to list?

Query (molecule): Cc1ncc(Cn2cc(CNC(=O)c3ccc(F)cc3)nn2)c(N)n1 [Compound 44] ; field requested: melting point
211 to 212 °C

Query (molecule): Cc1ncc(Cn2cc(CNC(=O)c3ccccc3Cl)nn2)c(N)n1 [Compound 49] ; field requested: melting point
217 to 218 °C

Query (molecule): Cc1ncc(Cn2nnc(COC(=O)c3ccc(F)cc3)c2I)c(N)n1 [Compound 94] ; field requested: melting point
207 to 209 °C

Query (molecule): Cc1ncc(Cn2cc(COC(=O)c3ccccc3Br)nn2)c(N)n1 [Compound 40] ; field requested: melting point
174 to 176 °C

Query (molecule): Cc1ncc(Cn2nnc(CNC(=O)c3ccccc3Cl)c2I)c(N)n1 [Compound 100] ; field requested: melting point
186 to 188 °C
